Each entry below carries its reported increase in efficacy with respect to the WT, NCI-N87 cells.
ASSAY_SYSTEM: HER2 expressed on the surface of cells (human, UniProt P04626 23-1255)
METHOD_NOTES: cell-based or functional assay
Numbers only; they are read as fold.

{"columns": ["BINDER", "NUMERIC_READOUT"],
 "data": [
  ["Variant 12471 (antibody, human IgG1, kappa, name in Kabat numbering, V domains shown, Kabat numbering; also called v12471; FSA version of v9996) VH: EVQLVESGGGLVQPGGSLRLSCAASGFTFADYTMDWVRQAPGKGLEWVGDVNPNSGGSIYNQRFKGRFTFSVDRSKNTLYLQMNSLRAEDTAVYYCARNLGPSFYFDYWGQGTLVTVSS VL: DIQMTQSPSSLSASVGDRVTITCKASQDVSIGVAWYQQKPGKAPKLLIYSASYRYTGVPSRFSGSGSGTDFTLTISSLQPEDFATYYCQQYYIYPATFGQGTKVEIKR", 1.9],
  ["Variant 14021 (antibody, name in Kabat numbering, V domains shown, also called v14021) VH: EVQLVESGGGLVQPGGSLRLSCAASGFTFQDYTMDWVRQAPGKGLEWVGDVNPNSGGSIYNQRFKGRFTFSVDRSWNTLYLQMNSLRAEDTAVYYCARNLGPSFYFDYWGQGTLVTVSS VL: DIQMTQSPSSLSASVGDRVTITCKASQDVSIGVAWYQQKPGKAPKLLIWSASYRYTGVPSRFSGSGSGTDFTLTISSLQPEDFATYYCQQYYIYPYTFGQGTKVEIKR", 2.6],
  ["Variant 14020 (antibody, name in Kabat numbering, V domains shown, also called v14020) VH: EVQLVESGGGLVQPGGSLRLSCAASGFTFQDYTMDWVRQAPGKGLEWVGDVNPNSGGSIYNQRFKGRFTFSVDRSKNTLYLQMNSLRAEDTAVYYCARNLGPWFYFDYWGQGTLVTVSS VL: DIQMTQSPSSLSASVGDRVTITCKASQDVSIGVAWYQQKPGKAPKLLIYSASYRYTGVPSRFSGSGSGTDFTLTISSLQPEDFATYYCQQYYIYPYTFGQGTKVEIKR", 3.2]
]}

--- query ---
Retrieve increase in efficacy with respect to the WT, NCI-N87 cells measured for Variant 14019 (antibody, name in Kabat numbering, V domains shown, also called v14019) VH: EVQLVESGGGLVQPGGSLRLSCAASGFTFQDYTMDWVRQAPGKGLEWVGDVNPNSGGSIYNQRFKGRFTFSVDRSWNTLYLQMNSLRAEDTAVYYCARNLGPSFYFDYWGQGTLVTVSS VL: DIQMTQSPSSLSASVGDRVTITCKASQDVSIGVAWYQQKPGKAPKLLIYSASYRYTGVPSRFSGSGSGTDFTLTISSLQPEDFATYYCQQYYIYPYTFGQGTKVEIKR and print it. 2.2
